Assay Details: NCI Yeast Anticancer Drug Screen. Data for the rad14 strain (AID 159);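 further: 0% = growth of vehicle-treated control cultures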
Reported Conditions: S. cerevisiae rad14 strain growth inhibition; at 100.0 µM; stronger effect = higher value
The panel holds about 79,000 compounds, 15% with a hit somewhere; the sample as a whole holds those more often.
Outcome Measure: growth inhibition (%)
Answers are plain numbers, in %.

Solved entries:
# Compound, Obs Value
records = [
    ("Nc1ccc2c(c1)C(=O)c1cccc(N)c1C2=O", 88),
    ("O=C(CC(=O)n1nc(-c2ccccc2)c(N=Nc2ccccc2C(=O)O)c1-c1ccccc1)Nc1ccc(Cl)cc1", 29),
    ("COc1cc(C2c3cc4c(cc3OC(NNc3ccccc3)C2C)OCO4)cc(OC)c1OC (configuration not stated)", 75),
]

// input: 5 compounds below; output: growth inhibition for each
1. [O-][n+]1c2ccc(O)cc2nc2ccc(Br)cc21
2. O=CC=C(c1ccccc1)c1ccccc1
3. COc1ccc(C2c3cc4c(cc3OC(C)(O)C2C)OCO4)c(OC)c1 (configuration not stated)
4. CC(=O)Nc1ccc(SC(C)=O)cc1
5. Cc1nc(-[n+]2nc(-c3ccncc3)nn2-c2ccccc2)sc1C

81
98
98
88
1

Hi there! I need growth inhibition for each item below, if you can.
1. c1ccc2c(c1)Oc1cccc3cccc-2c13
2. O=C1c2ccccc2C(=O)c2cc(CBr)ccc21
3. C[S+](C)C1(c2ccccc2)C(=O)c2ccccc2C1=O
4. CC(=O)ON1C(=O)c2cccc3cccc(c23)C1=O

[39, 89, 22, 99]

The reported numbers originate from PubChem BioAssay (NCI).
